Attribution: the nanobody polyreactivity screen of Harvey et al. (2022)

TEST NAME: yeast display, Sf9 membrane polyspecificity reagent, FACS + sequencing; frameworks hold sequencing errors
MEASURED ATTRIBUTE: polyreactivity (PSR sort gate)

QVQIVESGGVIVQAGGSLRLSCAASGRIISYYTMGWYRQAPGKERELVAAISVSSGRTYYADSVKGRFTISRDNAKNTVYLQMNSLKPEDTAVYYCDAKYLARSAYDYWGQGTQVTVSS	high polyreactivity
QVQLVESGGGLVQAGGSLRLSCAASGSTFKRNAMGWYRQAPGKERELVATITRRGGSTYADSVKGRFTISRDNAKNTVYLQMNSLKPEDTAVYYCARDGFSAGMDYWGQGTQVTVSS	low polyreactivity
QVQLVESGGGLVQAGGSLRLSCAASGRIFPLYAMGWYRQAPGKERELVARITYSGGSTYYADSVKGRFTISRDNAKNTVYLQMNSLKPEDTAVYYCAKDTYGRSTRNGYWGQGTQVTVSS	low polyreactivity
QVQLVESGGGLVQAGGSLRLSCAASGRTLVLNMGWYRQAPGKERELVATINSGGSTYYADSVKGRFTISRDNAKNTVYLQMNSLKPEDTAVYYCAVLSSDGKFDYWGQGTQVTVSS	low polyreactivity
QVQLVESAAGLVQAGGSLRLSCAASGGIFHGYAMGWYRHAPGKERELVAAISWSTGSTYYADSVKGRFTISRDNAKNTVYLQMNSLKPEDTAVYYCAARYLSGTSRYYYWGQGTQVTVSS	high polyreactivity

So what does the record say about polyreactivity (PSR sort gate) for QVQLVESGGGLVQAGGSLRLSCAASGRILPYNVMGWYRQATGKEREFVAAITGSGGDTYYADSVKGRFTISRDNAKNTVYLQMHILKPVDTAVYYCAAAPYIGGSFGQTPGSGYWGQGTQVTVSS ?
low polyreactivity

What value of measured polyreactivity (PSR sort gate) is listed for QVQLVESGGGLVQAGGSLRLSCAASGNIFSAYTMGWYRQAPGKERELVAAITGGTSTHYADSVKGRFTISRDNAKNTVYLQMNSLKPEDTAVYYCAADQGRYGIIGWDDYWGQGTQVTVSS ?
low polyreactivity

Endpoint output: polyreactivity (PSR sort gate) of QVQLVESGGGLVQAGGSLRLSCAASGIIFAYNAMGWYRQAPGNERELVAAITSGTSTHYADSVKGRFTISRDNAKNTVYLQMNSLKPEDTAVYYCAKVYSYFNPRTYKPSFAGSDYWGQGTQVTVSS . Value?
low polyreactivity

Which value of polyreactivity (PSR sort gate) has been reported for QVQLVESGGGLVQAGGSLRLSCAASGSIFGYYTMGWYRQAPGKERELVARISSSGARTYYADSVKGRFTISRDNAKNTVYLQMNSLKPEDTAVYYCNAQFGYRTIYYISQYYEYGYWGQGTQVTVSS in the records?
high polyreactivity

Form field: reported polyreactivity (PSR sort gate) of QVQLVDSGGGLVQAGGSRRVSCAASAFTFLWNAMGWYRQAPGKEREMVAAINGNSGNTYYADSVKGRFTLSVDNAKNTVYLQMNSMKAEDTAVYYCAKQGNNIPCYRPYGDYYYWGQGTQVTVSS
low polyreactivity

Quick one: polyreactivity (PSR sort gate) for QVQLVESGGGLVQAGGSLRLSCAASGIIFAYNAMGWYRQAPGKERELVAAISVIGGTTYYADSVKGRFTISRDNAKNTVYLQMHSLKPEDTAVYYCAVDSVQYGGGYERLHELYYWGQGTQVTVSS ?
low polyreactivity

// lookup polyreactivity (PSR sort gate) for QVQHVESGGGLVQAGGSLRLSCAASGIIFGHYDMGWYRQAPGKERELVAAITFTGDSTYYADSVKGRFTISRDNAKITVYLQMNSLKPEDTAVYFCAADTPVPWGSWGYDYWGQGTQVTVSS
low polyreactivity

Sample QVQLVESGGGLVQAGGSLRLSCAATGSTFYRNAMGWYRQAPGKEREFVAAISFRGGGTYADSVKGRFTISRDNAKNTVFLQMNSLKPEDTAVYYCADDHLSYRRRYEYWGQGTQVTVSS — what was its polyreactivity (PSR sort gate)?
low polyreactivity

Quick one: polyreactivity (PSR sort gate) for QVQLVESGGGLVQAGGSLRLSCAATGIIFDSYTMGWYRQAPGKERELVAAISVSGGSTYYADSVKVRFTISRDNAKNTVYLQMNSLKPEDTAVYYCAARGYAFNYMWPFNYWGQGTQVTVSS ?
low polyreactivity

May I ask what polyreactivity (PSR sort gate) has been recorded for QVQLVESGGGLVQPGGSLRLSCAASGFTFYPYVMGWYRQAPGKERELVAPINSGGARTYYADSEKGRFTISRDNAKNTVYYQIIRLKPEDTAVYYCAARTVVGGRIYYYWGQGTQVTVSS ?
low polyreactivity

Which polyreactivity (PSR sort gate) reading was recorded for the sequence QVQLVESGGGLVQAGGSLRLSCAASGRISNDYAMGWYRQAPGKERELVATITFSGGDTYYADSVKGRFTISRDNAKNTVYLQMNSLKPEDTAVYYCAASKWRSFSGGWWRLLFDYWGQGTQVTVSS ?
low polyreactivity

What does the record list as polyreactivity (PSR sort gate) for QVQLVEAGGGLVQAGGSLRLTCAASGPIFLSKAMGWYRQAPGTERELVAAINSGGNTDYADSVKARFTISRDNEKNTFYLQMNSLKPEDTAVYYCAADAFSWDHDYWGQGTQVTVSS ?
low polyreactivity

Any idea what its polyreactivity (PSR sort gate) is? The sequence is QVRLVESGGGLVKAGGSLRLSSAASGSTFWSYAMGCYRQATGKERELVAAISWSGDSTYYADSVKGRFTISRDNAKNTVYLQMNSLKPEDTAVYYCAADYVGGSYEYEYWGQGTQVTVSS
low polyreactivity

Can you share its polyreactivity (PSR sort gate)? I mean this sequence: QVQLVESGGGLVQAGGSLRLSCAASGSTFNGNVMGWYRQAPGKERDFVAGISKSGGTTYYADSVKGRFTISRDNAKNTVYLQMNSLKPEDTAVYYCAARGRVRYYPQYYYWGQGTQVTVSS
high polyreactivity

Look up polyreactivity (PSR sort gate): QVQLVESGGGLVQAGGSLRLSCDASGRIFVRYTMGWYRQATGKERELVAAITRSGGTYYADSVKGRFTISRDNATNTVYLQMNSLKPEDTAVYYCAADSWLSLWYEYWGQGTQVTVSS
low polyreactivity

polyreactivity (PSR sort gate) for QVQLVESGGGLVQAGGSLRLSCAASGSTFYPTYAMGWYRQAPGKERELVATITGSGGSTYYADSVKGRFTSSRDNAKNTVYLQMNSLKPEDTAVYYCAADRWYSRYTRYGYWGQGTQVTVSS ?
low polyreactivity
